Biological target: LXR β LBD protein (Homo sapiens (Human))
Sequence (P55055 222-460 limits assumed): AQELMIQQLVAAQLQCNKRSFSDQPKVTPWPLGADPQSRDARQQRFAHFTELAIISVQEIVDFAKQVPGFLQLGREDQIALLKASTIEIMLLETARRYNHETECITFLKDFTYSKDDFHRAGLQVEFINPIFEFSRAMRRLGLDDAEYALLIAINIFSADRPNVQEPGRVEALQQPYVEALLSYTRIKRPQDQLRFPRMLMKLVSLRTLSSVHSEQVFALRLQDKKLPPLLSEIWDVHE
Assay: biochemical
Format: binding
Conditions: read-out: LXRβ Binding Ki

compound	rel	Ki [nM]
CS(=O)(=O)c1cccc(N2CCN(C[C@H]3CC[C@@](C)(O)CC3)[C@H](c3ccccc3)C2)c1 (single isomer, unassigned)	>	2500
COC(c1cnc(N2CCN(c3ccc(F)c(S(C)(=O)=O)c3)C[C@H]2C(C)C)nc1)C(F)(F)F (some centres unmarked)	=	33
NS(=O)(=O)c1cccc(N2CCN(C[C@H]3CC[C@@H](C(F)F)CC3)[C@@H](c3ccccc3)C2)c1 (single isomer, unassigned)	=	11
CC(C)[C@H]1CN(c2cccc(S(C)(=O)=O)c2)CCN1C[C@@H]1CC[C@H](C(F)(F)F)OC1 (single isomer, unassigned)	=	11
COC(=O)c1cnc(N2CCN(c3ccc(F)c(S(C)(=O)=O)c3)C[C@H]2c2ccc(F)cc2)nc1C(F)(F)F	=	298
CC(C)[C@@H]1CN(c2ccc(F)c(S(C)(=O)=O)c2)CCN1c1cnc(C(F)(F)F)cn1	=	4
CC(C)[C@@H]1CN(c2ccc(F)c(S(C)(=O)=O)c2)CCN1c1ncc(CN(C)C(C)(C)C)c(C(F)(F)F)n1	=	360
CC(C)(F)CC1CN(c2ccc(F)c(S(C)(=O)=O)c2)CCN1c1ccc(C(F)(F)F)cn1 (centres unmarked)	=	38
CC(C)[C@@H]1CN(c2cccc(S(C)(=O)=O)c2)CCN1c1ncc(C2CC2)cn1	=	26
CS(=O)(=O)c1cccc(N2CCN(CC3CCN(CC(F)(F)F)CC3)[C@H](c3ccccc3Cl)C2)c1	=	1670
COCCCN(C)C(=O)c1cnc(N2CCN(c3ccc(F)c(S(C)(=O)=O)c3)C[C@H]2C(C)C)nc1C(F)(F)F	=	253
CC(C)[C@@H]1CN(c2ccc(F)c(S(C)(=O)=O)c2)CCN1c1ncc(O)c(C(F)(F)F)n1	=	24
CC[C@@H](O)c1cnc(N2CCN(c3ccc(F)c(S(C)(=O)=O)c3)C[C@H]2C(C)C)nc1C(F)(F)F (single isomer, unassigned)	=	9
CS(=O)(=O)c1cc(N2CCN(C[C@H]3CC[C@@H](C(F)(F)F)CC3)[C@H](c3ccccc3)C2)ccc1C(N)=O (single isomer, unassigned)	=	753
CS(=O)(=O)c1cc(N2CCN(C[C@H]3CC[C@H](C(F)(F)F)CC3)[C@@H](c3ccccc3)C2)ccc1C(N)=O (single isomer, unassigned)	=	1010
CC(C)[C@@H]1CN(c2ccc(F)c(S(C)(=O)=O)c2)CCN1c1nc(C(F)(F)F)c(C(C)(C)O)o1	=	132
CC(C)[C@H]1CN(c2ccc(CO)c(S(C)(=O)=O)c2)CCN1c1ncc(C(C)(C)O)c(C(F)(F)F)n1	=	230
CC(C)[C@@H]1CN(c2cc(F)c(CO)c(S(C)(=O)=O)c2)CCN1c1ncc(CO)c(C(F)(F)F)n1	=	2
CC(C)[C@H]1CN(c2ccc(CO)c(S(C)(=O)=O)c2)CCN1Cc1ccc(C(F)(F)F)cc1	=	27
COC1CN(C(=O)c2cnc(N3CCN(c4ccc(F)c(S(C)(=O)=O)c4)C[C@H]3C(C)C)nc2C(F)(F)F)C1	=	410

----------
Entries annotated with measured EC50
Biological target: Gal4 DNA binding domain fused to the LBD of LXRα in HEK293 cells (Homo sapiens (Human))
Sequence (Q13133 209-447): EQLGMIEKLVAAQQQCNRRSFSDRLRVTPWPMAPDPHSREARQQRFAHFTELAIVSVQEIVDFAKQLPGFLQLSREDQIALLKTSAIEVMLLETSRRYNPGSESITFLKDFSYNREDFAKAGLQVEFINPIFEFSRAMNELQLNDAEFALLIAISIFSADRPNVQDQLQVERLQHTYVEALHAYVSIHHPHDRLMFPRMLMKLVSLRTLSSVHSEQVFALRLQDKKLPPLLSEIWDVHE
Assay: LXR luciferase transcriptional reporter gene assay, agonist mode, LXRα
Format: cell-based
Details: read-out: Cell LXRα EC50
experimental_readout: EC50

compound	experimental_readout	recorded_measurement
CC(C)[C@@H]1CN(c2ccc(F)c(S(C)(=O)=O)c2)CCN1c1nc2ccccc2o1	EC50	1020 nM
Cc1nnc(-c2ccc(N3CCN(c4ncc(CO)c(C(F)(F)F)n4)[C@H](C(C)C)C3)cc2S(C)(=O)=O)o1	EC50	3280 nM
CC(C)[C@@H]1CN(c2ccc(F)c(S(C)(=O)=O)c2)CCN1C(=O)OC(C)(C)C	EC50	5250 nM
CC(C)[C@H]1CN(c2cccc(S(C)(=O)=O)c2)CCN1C[C@@H]1CC[C@H](C(F)(F)F)OC1 (single isomer, unassigned)	EC50	103 nM
CC(C)[C@@H]1CN(c2ccc(C#N)c(S(C)(=O)=O)c2)CCN1c1ncc([C@H](C)O)c(C(F)(F)F)n1 (single isomer, unassigned)	EC50	1480 nM
CS(=O)(=O)c1cccc(N2CCN(C[C@H]3CC[C@](C)(O)CC3)[C@H](c3ccccc3)C2)c1 (single isomer, unassigned)	EC50	> 20000 nM
CS(=O)(=O)c1cc(N2CCN(C[C@H]3CC[C@@H](C(F)(F)F)CC3)[C@@H](c3ccccc3)C2)ccc1C#N (single isomer, unassigned)	EC50	429 nM
CS(=O)(=O)c1cccc(N2CCN(C[C@H]3CC[C@H](C(F)(F)F)CC3)[C@@H](c3ccccc3Cl)C2)c1 (single isomer, unassigned)	EC50	1910 nM
CC(C)[C@@H]1CN(c2ccc(F)c(S(C)(=O)=O)c2)CCN1c1ncc(O)c(C(F)(F)F)n1	EC50	3120 nM
